Data credit: PubChem BioAssay (NCATS)

# assay-text: Cell Viability - SH-SY5Y (AID 544);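 note: cells exposed to compound for 40 hours; 0% = DMSO alone and -100% = 100 µM tamoxifen; nearly all actives have a fitted effect of over 55% in size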
# test-context: SH-SY5Y neuroblastoma cell viability; at 92.2 µM (top of the series)
# Text: NIH Chemical Genomics Center [NCGC] NIH Molecular Libraries Screening Centers Network [MLSCN] National Institutes of Environmental Health Sciences [NIEHS] National Toxicology Program [NTP] We have developed a 1536-well cell-based assay for quantitative high throughput screening (qHTS) against a number of cell lines to determine in vitro cytotoxicity of small molecules. […] 8. Detection; Luminescence; Viewlux plate reader […]
Results filed as inconclusive are left out. Active and inactive are the calls of the source. Calls come from the whole dose curve; as a rule, active = well fitted cell-killing curve with a large enough effect; inconclusive = small, poorly fitted or top-dose-only effect; inactive = flat fitted curve, though single readings scatter.
Bench note: report the call from active, inactive

-- ask Called result for CC(C)=O
-- reply inactive

-- ask Called result for IC(I)I
-- reply inactive

-- ask Called result for CC1=C2[C@@H]([C@H](C)CC[C@H]2/C=C(\C)C(=O)O)[C@H](O)C1
-- reply inactive

-- ask Called result for CCCCCCCC/C=C\CCCCCCCC(=O)O
-- reply inactive

-- ask Called result for CCCCC/C=C\C/C=C\CCCCCCCC(=O)O
-- reply inactive

-- ask Called result for CC(C)(C)NC(=O)[C@@H]1C[C@@H]2CCCC[C@@H]2CN1C[C@@H](O)[C@H](Cc1ccccc1)NC(=O)[C@H](CC(N)=O)NC(=O)c1ccc2ccccc2n1
-- reply active

* * *

# Test system: Zika virus NS2B-NS3 protease (linked construct)
# assay-text: Primary screen NINDS Rhodamine qHTS for Zika virus inhibitors (AID 1347160); note: nearly all actives have a fitted effect of over 55% in size
# test-context: purified NS2B-NS3 protease, Rhodamine110 substrate fluorescence; series mostly up to 57.1 µM
Records with an inconclusive call do not appear. The source made the active and inactive calls. Calls come from the whole dose curve; as a rule, active = well fitted inhibition curve with a large enough effect; inconclusive = small, poorly fitted or top-dose-only effect; inactive = no such curve, though single readings can be large or run the other way.
endpoint-label: outcome

Here's what some known entries look like.
-- ask Answer with the recorded outcome of COc1cc2c(Nc3ccc(Cl)c(Cl)c3F)ncnc2cc1OCC1C[C@@H]2CN(C)C[C@@H]2C1 (stereo partly drawn) only.
-- reply inactive

-- ask Answer with the recorded outcome of CC1CC(O)CC(C)(C)C1(O)CCO (stereo not drawn) only.
-- reply inactive

-- ask Answer with the recorded outcome of CCC(=O)O[C@]1(C(=O)CCl)[C@@H](C)C[C@H]2[C@@H]3C[C@H](F)C4=CC(=O)C=C[C@]4(C)[C@@]3(F)[C@@H](O)C[C@@]21C only.
-- reply inactive

-- ask Answer with the recorded outcome of C=C1C2=CC(O)C(C)C1(C)CC/C(C)=C/CCC1(C)OC1C2=O (stereo not drawn) only.
-- reply inactive

-- ask Answer with the recorded outcome of O=C(O)C[C@H](O)C[C@H](O)/C=C/c1c(C2CC2)nc2ccccc2c1-c1ccc(F)cc1 only.
-- reply inactive

***
-- ask Answer with the recorded outcome of C[C@H](NCc1ccc(OCc2ccccc2F)cc1)C(N)=O only.
-- reply inactive

-- ask Answer with the recorded outcome of CC(=O)OC[C@]12[C@H](OC(C)=O)C(=O)[C@@H]3[C@@H](OC(C)=O)[C@@]14O[C@@]3(C)COC(=O)c1cccnc1[C@@H](C)[C@H](C)C(=O)O[C@@H]([C@H](OC(C)=O)[C@@H]2OC(C)=O)[C@]4(C)O only.
-- reply inactive

-- ask Answer with the recorded outcome of C/C(=C\CCC(C)(O)c1ccc(C)cc1)C(=O)O (stereo not drawn) only.
-- reply inactive

* * *

# Test system: CRL-7250
# assay-text: Cytotoxic Profiling of Annotated Libraries Using Quantitative High-Throughput Screening (AID 1296008); note: % is set by controls: 0 for no effect and ±100 for the full control effect; nearly all actives have a fitted effect of over 60% in size
# test-context: Five cell lines viability, CellTiter-Glo ATP luminescence, 48-72 h; stronger effect = lower value
Inconclusive results are not listed.
endpoint-label: max response (%)
Entry rule: numbers only, all in %.

Here's what some known entries look like.
-- ask Answer with the recorded max response of COC(=O)C12C(=O)C(C)=C(O)C1(C)C(C)=CC1C34CCC(OC3=O)C(C)(C)C4CCC12C (stereo not drawn) only.
-- reply -4.32

-- ask Answer with the recorded max response of CC(C)C1=CCC(C)(O)C(OC2OC(CO)C(O)C(O)C2O)C1 (stereo not drawn) only.
-- reply -1.73

-- ask Answer with the recorded max response of CC(C)CC(=O)OC[C@H]1O[C@@](COC(=O)CC(C)C)(O[C@H]2O[C@H](CO)[C@@H](O)[C@H](O)[C@H]2O)[C@@H](OC(=O)CC(C)C)[C@@H]1OC(=O)CC(C)C only.
-- reply -0.942

-- ask Answer with the recorded max response of CC1=CC(=O)OC(C)(CC(C)(O)C(=O)O)C1 (stereo not drawn) only.
-- reply -4.45

-- ask Answer with the recorded max response of CCC[C@@H]1C[C@@H](C(=O)N[C@H](C(C)Cl)[C@H]2O[C@H](SC)[C@H](O)[C@@H](O)[C@H]2O)N(C)C1 (stereo partly drawn) only.
-- reply -2.55

-- ask Answer with the recorded max response of COC(=O)C1=COC(O[C@@H]2O[C@H](CO)[C@@H](O)[C@H](O)[C@H]2O)/C(=C\COC(=O)c2ccc(OC3OC(CO)C(O)C(O)C3O)c(OC)c2)C1CC(=O)OCCc1ccc(O)cc1 (stereo partly drawn) only.
-- reply -6.94

***
-- ask Answer with the recorded max response of O=C(COc1ccc(Cl)cc1)NC1CCC(NC(=O)COc2ccc(Cl)cc2)CC1 (stereo not drawn) only.
-- reply 2.66

-- ask Answer with the recorded max response of OC[C@H]1O[C@@H](OCCc2ccc(O)cc2)[C@H](O)[C@@H](O)[C@@H]1O only.
-- reply 1.66

-- ask Answer with the recorded max response of O=C1Nc2ccc(O)cc2O[C@H]1O[C@@H]1O[C@H](CO)[C@@H](O)[C@H](O)[C@H]1O only.
-- reply -3.66
